Where do these numbers come from? They come from ChEMBL document CHEMBL5042492.

# maps each entry to its pIC50
assay_system: CDK12/Cyclin K (Homo sapiens)
Sequence (O75909 whole entry, the tested form may be a part): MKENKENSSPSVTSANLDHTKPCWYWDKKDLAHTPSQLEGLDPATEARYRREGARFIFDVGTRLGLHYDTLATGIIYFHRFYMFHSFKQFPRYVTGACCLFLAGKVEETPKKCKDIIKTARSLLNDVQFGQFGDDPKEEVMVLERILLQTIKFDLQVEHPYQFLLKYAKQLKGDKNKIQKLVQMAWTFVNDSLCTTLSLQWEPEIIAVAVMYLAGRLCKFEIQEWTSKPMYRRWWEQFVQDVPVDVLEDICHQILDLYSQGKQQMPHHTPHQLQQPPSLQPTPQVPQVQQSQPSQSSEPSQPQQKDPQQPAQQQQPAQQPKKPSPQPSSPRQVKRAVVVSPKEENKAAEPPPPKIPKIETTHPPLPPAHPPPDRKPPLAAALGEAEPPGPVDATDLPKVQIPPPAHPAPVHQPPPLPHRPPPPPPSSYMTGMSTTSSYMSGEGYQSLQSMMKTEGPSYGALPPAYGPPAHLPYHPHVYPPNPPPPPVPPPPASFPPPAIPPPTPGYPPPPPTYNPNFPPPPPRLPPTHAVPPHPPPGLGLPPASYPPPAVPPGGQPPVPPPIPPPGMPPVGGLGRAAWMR
Sequence (Q9NYV4 whole entry, the tested form may be a part): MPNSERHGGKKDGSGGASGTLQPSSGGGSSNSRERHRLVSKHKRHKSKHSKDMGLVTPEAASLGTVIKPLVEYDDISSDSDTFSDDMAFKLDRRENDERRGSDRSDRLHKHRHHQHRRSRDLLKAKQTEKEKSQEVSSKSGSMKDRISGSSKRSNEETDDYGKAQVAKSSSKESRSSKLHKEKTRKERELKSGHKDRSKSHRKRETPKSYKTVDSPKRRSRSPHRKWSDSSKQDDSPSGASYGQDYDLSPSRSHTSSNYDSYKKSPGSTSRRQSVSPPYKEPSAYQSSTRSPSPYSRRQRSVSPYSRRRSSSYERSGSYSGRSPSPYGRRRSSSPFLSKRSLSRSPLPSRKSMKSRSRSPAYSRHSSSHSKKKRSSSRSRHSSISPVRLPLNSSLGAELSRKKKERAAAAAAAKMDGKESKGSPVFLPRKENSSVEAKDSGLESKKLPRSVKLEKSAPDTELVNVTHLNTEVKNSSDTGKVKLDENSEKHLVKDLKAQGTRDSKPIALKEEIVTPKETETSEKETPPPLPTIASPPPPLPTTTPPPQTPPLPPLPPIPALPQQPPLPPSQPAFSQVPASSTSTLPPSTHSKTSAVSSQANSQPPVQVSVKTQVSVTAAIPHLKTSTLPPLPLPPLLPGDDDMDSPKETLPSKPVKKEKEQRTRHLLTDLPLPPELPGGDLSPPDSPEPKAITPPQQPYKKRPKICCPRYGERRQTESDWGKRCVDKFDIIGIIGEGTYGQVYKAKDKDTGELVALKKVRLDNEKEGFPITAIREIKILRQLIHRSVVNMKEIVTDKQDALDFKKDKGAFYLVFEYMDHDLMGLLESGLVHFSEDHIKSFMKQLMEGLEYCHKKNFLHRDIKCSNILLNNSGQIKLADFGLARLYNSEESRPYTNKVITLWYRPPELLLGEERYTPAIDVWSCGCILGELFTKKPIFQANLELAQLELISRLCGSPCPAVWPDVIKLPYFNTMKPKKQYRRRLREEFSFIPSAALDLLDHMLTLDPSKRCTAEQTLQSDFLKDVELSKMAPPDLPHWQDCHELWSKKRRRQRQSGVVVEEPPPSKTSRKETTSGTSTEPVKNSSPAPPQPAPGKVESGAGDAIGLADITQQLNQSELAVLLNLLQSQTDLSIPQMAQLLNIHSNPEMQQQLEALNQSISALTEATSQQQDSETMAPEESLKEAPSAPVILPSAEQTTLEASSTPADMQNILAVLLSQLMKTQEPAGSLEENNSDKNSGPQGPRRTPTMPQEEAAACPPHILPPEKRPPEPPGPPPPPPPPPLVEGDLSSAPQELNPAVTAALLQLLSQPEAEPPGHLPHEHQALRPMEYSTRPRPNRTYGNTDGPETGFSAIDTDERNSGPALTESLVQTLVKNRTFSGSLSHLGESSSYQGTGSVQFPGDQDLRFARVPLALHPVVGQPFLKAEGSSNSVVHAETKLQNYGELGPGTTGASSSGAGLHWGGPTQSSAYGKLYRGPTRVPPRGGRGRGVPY
experimental_protocol: Inhibition of human CDK12 (696 to 1082 residues) /cyclinK (1 to 300 residues) using ac-YSPTSPpSYSPTSFpS-YSPTSPpSY-[PEG2]-RR-amid peptide as substrate in presence of ATP measured after 2 hrs by ADP-Glo kinase assay
// pIC50 is dimensionless: -log10 of concentration (M)

COCCOCCOc1cc2[nH]c(CNc3nc(OCC[C@@H]4CCCCN4)nc4c3ncn4C(C)C)nc2cc1F; 7.18

Qu. Entry CC(C)n1cnc2c(NCc3nc4cc(F)c(NCCCCCCCCCCCCNC(=O)COc5cccc6c5C(=O)N(C5CCC(=O)NC5=O)C6=O)cc4[nH]3)nc(N3CCOCC3)nc21 (stereo unspecified) has what pIC50?
Ans. 5.70

Qu. Also, CC(C)n1cnc2c(NCc3nc4cc(F)c(NCCCCCCNC(=O)COc5cccc6c5C(=O)N(C5CCC(=O)NC5=O)C6=O)cc4[nH]3)nc(N3CCOCC3)nc21 (stereo unspecified) please.
Ans. 6.92

Qu. Also, COCCOCCOc1cc2[nH]c(CNc3nc(N4CCOCC4)nc4c3ncn4-c3cnn(C)c3)nc2cc1F please.
Ans. 6.39

Qu. Also, CC(C)n1cnc2c(NCc3nc4cc(F)c(NCCCCCCCCNC(=O)COc5cccc6c5C(=O)N(C5CCC(=O)NC5=O)C6=O)cc4[nH]3)nc(N3CCOCC3)nc21 (stereo unspecified) please.
Ans. 6.19

Qu. Also, COCCOCCOc1cc2[nH]c(CNc3nc(N4CCOCC4)nc4c3ncn4C(C)C)nc2cc1F please.
Ans. 6.63
